system: Human promyelocytic leukemia (HL60) cells; assay: HL-60 differentiation (nitro blue tetrazolium reduction); assay type: cell-based; conditions: Homo sapiens, HL-60, 96 h; HL60 cells, four days of treatment; read-out: EC50, ability to promote HL60 differentiation
parameter: EC50 (nM)
Supply the numeric figure in nM, leaving out any unit text.

Previously resolved entries follow.
Which EC50 value belongs to C=C1/C(=C\C=C2/CCC[C@]3(C)[C@@H]([C@H](C)CCCC(C)(C)O)CC[C@@H]23)C[C@@H](O)C(=C)[C@@H]1O ? 7

Which EC50 value belongs to C=C1/C(=C/C=C2\CCC[C@]3(C)[C@@H]([C@@H](C)CCCC(C)(C)O)CC[C@@H]23)C[C@@H](O)C(=C)[C@@H]1O ? 0.3

Would you kindly look at the next entry?
Which EC50 value belongs to C=C1/C(=C\C=C2/CCC[C@]3(C)[C@@H]([C@@H](C)CCCC(C)(C)O)CC[C@@H]23)C[C@@H](O)C(=C)[C@@H]1O ? 0.06

---

molecular target: full-length recombinant rat vitamin D receptor (Rattus norvegicus, UniProt P13053); experiment: biochemical
Sequence (P13053 whole entry): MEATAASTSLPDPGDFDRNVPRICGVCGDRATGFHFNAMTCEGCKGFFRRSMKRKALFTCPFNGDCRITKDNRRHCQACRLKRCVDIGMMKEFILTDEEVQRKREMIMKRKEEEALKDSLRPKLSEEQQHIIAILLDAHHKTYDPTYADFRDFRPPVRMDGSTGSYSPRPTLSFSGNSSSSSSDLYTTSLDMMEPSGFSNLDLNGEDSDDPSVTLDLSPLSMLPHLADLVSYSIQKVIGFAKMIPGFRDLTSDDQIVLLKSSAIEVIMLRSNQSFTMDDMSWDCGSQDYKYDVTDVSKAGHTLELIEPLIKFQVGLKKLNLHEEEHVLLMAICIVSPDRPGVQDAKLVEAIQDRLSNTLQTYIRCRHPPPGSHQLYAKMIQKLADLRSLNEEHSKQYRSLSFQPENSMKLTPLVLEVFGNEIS
The following compounds are listed with their measured Ki values.
Supply the numeric figure in nM, leaving out any unit text.

Previously resolved entries follow.
Write down the reported Ki of C=C1/C(=C/C=C2\CCC[C@]3(C)[C@@H]([C@@H](C)CCCC(C)(C)O)CC[C@@H]23)C[C@@H](O)C(=C)[C@@H]1O [T-2EG-S] , test system: full-length recombinant rat vitamin D receptor (Rattus norvegicus, UniProt P13053). 0.1

Write down the reported Ki of C=C1/C(=C\C=C2/CCC[C@]3(C)[C@@H]([C@@H](C)CCCC(C)(C)O)CC[C@@H]23)C[C@@H](O)C(=C)[C@@H]1O [2EG-S] , test system: full-length recombinant rat vitamin D receptor (Rattus norvegicus, UniProt P13053). 0.1

Would you kindly look at the next entry?
Write down the reported Ki of C=C1/C(=C\C=C2/CCC[C@]3(C)[C@@H]([C@H](C)CCCC(C)(C)O)CC[C@@H]23)C[C@@H](O)C(=C)[C@@H]1O [2EG-R] , test system: full-length recombinant rat vitamin D receptor (Rattus norvegicus, UniProt P13053). 0.06
